STUDY_TARGET: F508delCFTR (Homo sapiens, UniProt P13569, DEL508-508)
Construct: expressed in transfected cells; host or cells: CFBE41o- human lung-derived epithelial cell line, doxycycline-inducible expression
Sequence (P13569 with tags, fused parts or gaps DEL508-508): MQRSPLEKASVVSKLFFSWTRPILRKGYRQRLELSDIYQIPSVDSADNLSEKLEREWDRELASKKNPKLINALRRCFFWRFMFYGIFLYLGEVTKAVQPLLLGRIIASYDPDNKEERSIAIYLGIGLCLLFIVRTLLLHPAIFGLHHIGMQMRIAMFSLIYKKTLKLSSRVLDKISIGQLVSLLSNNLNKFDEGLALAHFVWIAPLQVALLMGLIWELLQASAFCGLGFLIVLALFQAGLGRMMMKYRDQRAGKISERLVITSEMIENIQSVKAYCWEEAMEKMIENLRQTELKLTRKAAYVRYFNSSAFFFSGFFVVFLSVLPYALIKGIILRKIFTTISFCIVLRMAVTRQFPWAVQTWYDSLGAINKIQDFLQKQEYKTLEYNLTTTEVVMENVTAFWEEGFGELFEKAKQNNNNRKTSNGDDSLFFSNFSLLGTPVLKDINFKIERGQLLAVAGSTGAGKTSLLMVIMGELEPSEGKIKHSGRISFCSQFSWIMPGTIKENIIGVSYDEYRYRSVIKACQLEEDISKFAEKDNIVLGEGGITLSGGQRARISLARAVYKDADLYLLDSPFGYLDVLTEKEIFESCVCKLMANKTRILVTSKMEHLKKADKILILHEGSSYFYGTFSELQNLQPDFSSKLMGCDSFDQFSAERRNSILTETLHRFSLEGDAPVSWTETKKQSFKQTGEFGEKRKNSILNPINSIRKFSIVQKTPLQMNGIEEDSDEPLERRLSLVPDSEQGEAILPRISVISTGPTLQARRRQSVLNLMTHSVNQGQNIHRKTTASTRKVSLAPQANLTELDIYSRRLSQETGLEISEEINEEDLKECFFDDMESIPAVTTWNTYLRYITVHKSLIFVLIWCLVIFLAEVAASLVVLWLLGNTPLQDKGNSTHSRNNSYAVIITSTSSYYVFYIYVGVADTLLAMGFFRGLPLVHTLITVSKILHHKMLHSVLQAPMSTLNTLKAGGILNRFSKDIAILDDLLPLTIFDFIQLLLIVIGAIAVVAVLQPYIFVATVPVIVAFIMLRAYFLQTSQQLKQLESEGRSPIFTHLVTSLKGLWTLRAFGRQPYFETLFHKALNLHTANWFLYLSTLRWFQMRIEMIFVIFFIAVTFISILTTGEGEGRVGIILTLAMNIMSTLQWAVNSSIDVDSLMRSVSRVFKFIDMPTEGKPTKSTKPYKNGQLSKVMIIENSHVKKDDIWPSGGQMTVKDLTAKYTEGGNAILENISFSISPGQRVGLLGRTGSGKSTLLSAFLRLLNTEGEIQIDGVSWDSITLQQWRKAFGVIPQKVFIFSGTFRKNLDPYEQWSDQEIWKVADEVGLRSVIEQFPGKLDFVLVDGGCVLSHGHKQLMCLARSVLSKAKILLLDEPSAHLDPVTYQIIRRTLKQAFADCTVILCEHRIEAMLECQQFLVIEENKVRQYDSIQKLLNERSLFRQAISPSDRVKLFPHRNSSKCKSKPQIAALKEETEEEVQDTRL
RUN_DESCRIPTION: Cell Surface Expression-Horse Radish Peroxidase (CSE-HRP) assay in CFBE41o-F508delCFTR-HRP cells
Type: cell-based
MEASUREMENT_PARAMETERS: without co-corrector; CFBE41o-F508delCFTR-HRP cells, 18-24 hours at 33° C., luminescence; read-out: EC50 (without co-corrector)
Give measured pEC50 for each item. Keep answers brief.
One number for each entry, as −log10 of the molar value.

// input: 7 compounds below; output: pEC50 for each
1. COc1ccc(C)cc1[C@@]1(C(=O)NS(=O)(=O)c2cccc3nc(C)ccc23)C[C@H]1c1cnc(C)c(F)c1 (single isomer, unassigned)
2. COc1cnc([C@@H]2C[C@]2(C(=O)NS(=O)(=O)c2cccc3nc(C)ccc23)c2cc(C)ccc2OC)cn1 (racemic) [Example 39]
3. COc1cccc([C@@H]2C[C@]2(C(=O)NS(=O)(=O)c2cccc3nc(C)ccc23)c2cc(C)ccc2OC)n1
4. COc1ncc([C@@H]2C[C@]2(C(=O)NS(=O)(=O)c2cccc3nc(C)ccc23)c2cc(C)ccc2OC)cn1 (racemic) [Example 36]
5. COc1ccc(C)cc1[C@@]1(C(=O)NS(=O)(=O)c2cccc3nc(C)ccc23)C[C@H]1c1cnc(C(C)C)cn1 (single isomer, unassigned) [Example 63]
6. COc1ccc([C@@H]2C[C@]2(C(=O)NS(=O)(=O)c2cccc3nc(C)ccc23)c2cc(C)ccc2OC)cc1 (single isomer, unassigned) [Example 17]
7. COc1cncc([C@@H]2C[C@]2(C(=O)NS(=O)(=O)c2cccc3nc(C)ccc23)c2cc(C)ccc2OC)c1 (single isomer, unassigned) [Example 51]

[6.00, 5.91, 5.85, 5.36, 5.76, 5.62, 5.26]

Need pEC50 for each of these compounds.
1. COc1cccc([C@@H]2C[C@]2(C(=O)NS(=O)(=O)c2cccc3nc(C)ccc23)c2cc(C)ccc2OC)c1 (racemic) [Example 15]
2. COc1ccc(C)cc1[C@]1(C(=O)NS(=O)(=O)c2cccc3nc(C)ccc23)C[C@@H]1c1cccc(N(C)C)n1
3. COc1ccc(C)cc1[C@@]1(C(=O)NS(=O)(=O)c2cccc3nc(C)ccc23)C[C@H]1c1cccc(F)c1 (single isomer, unassigned) [Example 20]
4. COc1ccc(C)cc1[C@]1(C(=O)NS(=O)(=O)c2cccc3nc(C)ccc23)C[C@@H]1c1cnc(C)c(F)c1 (single isomer, unassigned)
5. COc1ccc(C)cc1[C@@]1(C(=O)NS(=O)(=O)c2cccc3nc(C)ccc23)C[C@H]1c1ccccc1 (racemic) [Example 1]

6.00
5.67
6.61
5.35
5.55

For every record below, what is its pEC50?
1. COc1ccc(C)cc1[C@]1(C(=O)NS(=O)(=O)c2cccc3nc(C)ccc23)C[C@@H]1c1ccc(C)nc1C
2. COc1ccc(C)cc1[C@]1(C(=O)NS(=O)(=O)c2cccc3nc(C)ccc23)C[C@@H]1c1ccc(C(F)F)nc1
3. COc1ccc(C)cc1[C@]1(C(=O)NS(=O)(=O)c2cccc3nc(C)ccc23)C[C@@H]1c1ccc(C(C)C)nn1
4. COc1ccc(C)cc1[C@@]1(C(=O)NS(=O)(=O)c2cccc3nc(C)ccc23)C[C@H]1c1ccc(C)cc1 (single isomer, unassigned) [Example 6]
5. COc1ccc(C)cc1[C@]1(C(=O)NS(=O)(=O)c2cccc3nc(C)ccc23)C[C@@H]1c1ccccn1
6. COc1ccc(C)cc1[C@]1(C(=O)NS(=O)(=O)c2cccc3nc(C)ccc23)C[C@@H]1c1ccccc1F (single isomer, unassigned)

1: 5.24; 2: 5.37; 3: 5.22; 4: 6.73; 5: 5.42; 6: 6.00

====

STUDY_TARGET: F508del/F508del CFTR (Homo sapiens, UniProt P13569, DEL508-508)
Construct: cells isolated from CF patients with the homozygous mutation; endogenous in cells; host or cells: primary human bronchial epithelial (hBE) cells from CF patients homozygous for F508del
Sequence (P13569 with tags, fused parts or gaps DEL508-508): as above
RUN_DESCRIPTION: Trans-Epithelial Current Clamp (TECC) assay using primary human bronchial epithelial cells
Assay type: cell-based
MEASUREMENT_PARAMETERS: maximum percent activity relative to positive control (co-corrector 0.15 μM + potentiator 0.45 μM = 100%); primary hBE cells F508del/F508del
EXPERIMENTAL_READOUT: Emax (% Dual)
Numbers only, in % Dual.

Example entries and their recorded answers appear below.
COc1cnc([C@@H]2C[C@]2(C(=O)NS(=O)(=O)c2cccc3nc(C)ccc23)c2cc(C)ccc2OC)cn1 (single isomer, unassigned) [Example 47] | 247
COc1ccc(C)cc1[C@]1(C(=O)NS(=O)(=O)c2cccc3nc(C)ccc23)C[C@@H]1c1ccc(N(C)C)nc1 | 217
COc1cccc([C@@H]2C[C@]2(C(=O)NS(=O)(=O)c2cccc3nc(C)ccc23)c2cc(C)ccc2OC)c1 (single isomer, unassigned) [Example 27] | 275

List the reported Emax (% Dual) of each compound below.
1. COc1ccc([C@@H]2C[C@]2(C(=O)NS(=O)(=O)c2cccc3nc(C)ccc23)c2cc(C)ccc2OC)cc1 (single isomer, unassigned) [Example 17]
2. COc1ccc(C)cc1[C@]1(C(=O)NS(=O)(=O)c2cccc3nc(C)ccc23)C[C@@H]1c1cnc(C)cn1 (racemic) [Example 89]
3. COc1ccc(C)cc1[C@@]1(C(=O)NS(=O)(=O)c2cccc3nc(C)ccc23)C[C@H]1c1cnc(C)c(F)c1 (single isomer, unassigned)

1. 296
2. 322
3. 199

====

STUDY_TARGET: F508del/F508del CFTR (Homo sapiens, UniProt P13569, DEL508-508)
Construct: cells isolated from CF patients with the homozygous mutation; endogenous in cells
RUN_DESCRIPTION: Trans-Epithelial Current Clamp (TECC) assay using primary human bronchial epithelial cells
MEASUREMENT_PARAMETERS: primary hBE cells homozygous F508del/F508del; test C2 corrector with co-corrector and potentiator, 18-24 hours at 37° C.; equivalent CFTR current (IEQ)/AUC
EXPERIMENTAL_READOUT: pEC50
Answers are plain numbers, as −log10 of the molar value.

See these solved cases before continuing.
COc1ccc(C)cc1[C@@]1(C(=O)NS(=O)(=O)c2cccc3nc(C)ccc23)C[C@H]1c1cncc(C)n1 (racemic) [Example 35] | 7.32
COc1ccc(C)cc1[C@@]1(C(=O)NS(=O)(=O)c2cccc3nc(C)ccc23)C[C@H]1c1ccc(C(C)C)nc1OC (racemic) [Example 78] | 7.52

Read the next record carefully.
Query pEC50 on F508del/F508del CFTR (Homo sapiens, UniProt P13569, DEL508-508) for COc1ccc(C)cc1[C@]1(C(=O)NS(=O)(=O)c2cccc3nc(C)ccc23)C[C@@H]1c1ccccc1F (single isomer, unassigned)
8.37

====

STUDY_TARGET: F508del/F508del CFTR (Homo sapiens, UniProt P13569, DEL508-508)
Construct: cells isolated from CF patients with the homozygous mutation; endogenous in cells
RUN_DESCRIPTION: Trans-Epithelial Current Clamp (TECC) assay using primary human bronchial epithelial cells
MEASUREMENT_PARAMETERS: primary hBE cells homozygous F508del/F508del; test C2 corrector with co-corrector and potentiator, 18-24 hours at 37° C.; equivalent CFTR current (IEQ)/AUC
EXPERIMENTAL_READOUT: pEC50
Answers are plain numbers, as −log10 of the molar value.

Please review the following examples before continuing.
COc1ccc(C)cc1[C@]1(C(=O)NS(=O)(=O)c2cccc3nc(C)ccc23)C[C@@H]1c1cccnc1OC (single isomer, unassigned) [Example 50] | 8.28
COc1ccc(C)cc1[C@]1(C(=O)NS(=O)(=O)c2cccc3nc(C)ccc23)C[C@@H]1c1ccc(C(C)C)nc1 [Example 67] | 7.68
COc1ccc(C)cc1[C@@]1(C(=O)NS(=O)(=O)c2cccc3nc(C)ccc23)C[C@H]1c1ccccc1 (single isomer, unassigned) [Example 2] | 7.89
COc1ccc(C)cc1[C@]1(C(=O)NS(=O)(=O)c2cccc3nc(C)ccc23)C[C@@H]1c1ccccc1C [Example 34] | 8.54
COc1ccc(C)cc1[C@]1(C(=O)NS(=O)(=O)c2cccc3nc(C)ccc23)C[C@@H]1c1ccc(C(F)(F)F)cc1 (single isomer, unassigned) [Example 18] | 8.89

Would you mind listing pEC50 for each of the following compounds?
1. COc1ccc(C)cc1[C@]1(C(=O)NS(=O)(=O)c2cccc3nc(C)ccc23)C[C@@H]1c1cnc(OC)c(C)c1 [Example 103]
2. COc1ccc(C)cc1[C@]1(C(=O)NS(=O)(=O)c2cccc3nc(C)ccc23)C[C@@H]1c1cnc(OC)c(C)n1 [Example 83]
3. COc1ccc(C)cc1[C@]1(C(=O)NS(=O)(=O)c2cccc3nc(C)ccc23)C[C@@H]1c1cnc(C)cn1 (racemic) [Example 89]
4. COc1cccc([C@H]2C[C@@]2(C(=O)NS(=O)(=O)c2cccc3nc(C)ccc23)c2cc(C)ccc2OC)n1 [Example 43]
5. COc1ccc([C@H]2C[C@@]2(C(=O)NS(=O)(=O)c2cccc3nc(C)ccc23)c2cc(C)ccc2OC)cn1 [Example 32]
6. COc1ccc(C)cc1[C@@]1(C(=O)NS(=O)(=O)c2cccc3nc(C)ccc23)C[C@H]1c1cccc(F)c1 (racemic) [Example 8]
7. COc1ccc(C)cc1[C@]1(C(=O)NS(=O)(=O)c2cccc3nc(C)ccc23)CC1c1cccc(Cl)n1 (stereo in doubt) [Example 105]
8. COc1ccc(C)cc1[C@]1(C(=O)NS(=O)(=O)c2cccc3nc(C)ccc23)C[C@@H]1c1ccc(C(F)F)nc1 [Example 70]

8.74
7.48
6.85
8.54
8.04
8.85
8.51
7.93

Values compiled from patent US20240043386A1.
